*1 amine or outer side, *2 acyl side, *3 side chain or, on linkers, in order; H or OH if unused. Where a SMILES comes first, the peptide text is derived from it. Bridges are numbered along the chain shown (N, C = ends). Roman numbers before positions name the chains, in order. [ ]: non-standard residue; d: D form. Actinocin(9to1) = Cc1c2oc3c(C)ccc(C(=O)[*:1])c3nc-2c(C(=O)[*:2])c(N)c1=O; NMeV = CN[C@H](C(=O)O)C(C)C; Sar = CNCC(=O)O
// each record: one item and its Compound Myofibroblast Cytotoxicity Activity for hDMFa myofibroblast cells

Here is how some molecules turned out for Compound Myofibroblast Cytotoxicity Activity.
Item: CC[C@H]1OC(=O)[C@H](C)[C@@H](O[C@H]2C[C@@](C)(OC)[C@@H](O)[C@H](C)O2)[C@H](C)[C@@H](O[C@@H]2O[C@H](C)C[C@H](N(C)C)[C@H]2O)[C@](C)(OC)C[C@@H](C)C(=O)[C@H](C)[C@@H](O)[C@]1(C)O | System: hDMFa myofibroblast cells | Compound Myofibroblast Cytotoxicity Activity: +++

Item: CC1(C)CC(=O)CC(C)(C)N1 | System: hDMFa myofibroblast cells | Compound Myofibroblast Cytotoxicity Activity: ++

Item: Cc1c2oc3c(C)ccc(C(=O)N[C@@H]4C(=O)N[C@H](C(C)C)C(=O)N5CCC[C@H]5C(=O)N(C)CC(=O)N(C)[C@@H](C(C)C)C(=O)O[C@@H]4C)c3nc-2c(C(=O)N[C@@H]2C(=O)N[C@H](C(C)C)C(=O)N3CCC[C@H]3C(=O)N(C)CC(=O)N(C)[C@@H](C(C)C)C(=O)O[C@@H]2C)c(N)c1=O [Cmpd 86, Actinomycin D] (I: T[dV]P[Sar][NMeV] / II: T[dV]P[Sar][NMeV]; ester I:1-I:C, II:1-II:C; linker I:N-II:N via Actinocin(9to1)) | System: hDMFa myofibroblast cells | Compound Myofibroblast Cytotoxicity Activity: ++

Item: CC[N+](C)(C)c1cccc(O)c1.[Cl-] [Cmpd 406, Edrophonium (chloride)] | System: hDMFa myofibroblast cells | Compound Myofibroblast Cytotoxicity Activity: +++

Shifting focus to the molecule that follows.
Item: CCC1=C[C@@H]2CN(C1)Cc1c([nH]c3ccccc13)[C@@](C(=O)OC)(c1cc3c(cc1OC)N(C)[C@H]1[C@@](O)(C(=O)OC)[C@H](OC(C)=O)[C@]4(CC)C=CCN5CC[C@]31[C@@H]54)C2 | System: hDMFa myofibroblast cells | Compound Myofibroblast Cytotoxicity Activity: ++

----------
// each record: one item and its Compound Myofibroblast Cytotoxicity Activity for hDMFa myofibroblast cells
Where a name gives a salt, the structure may show the parent alone.

Reported Compound Myofibroblast Cytotoxicity Activity ( CN(C)[C@@H](CCOc1cccc2ccccc12)c1ccccc1 [Cmpd 322, Dapoxetine HCl] ) = ++

Reported Compound Myofibroblast Cytotoxicity Activity ( S=C(NCc1ccc2c(c1)OCO2)N1CCN(c2ncnc3c2oc2ccccc23)CC1 ) = ++

Reported Compound Myofibroblast Cytotoxicity Activity ( OC(CCCN1CCCCC1)(c1ccccc1)c1ccccc1 [Cmpd 365, Diphenidol HCl] ) = ++++

Reported Compound Myofibroblast Cytotoxicity Activity ( COc1cccc2c1C(=O)c1c(O)c3c(c(O)c1C2=O)C[C@@](O)(C(C)=O)C[C@@H]3O[C@H]1C[C@H](N)[C@H](O)[C@H](C)O1 [Cmpd 329, Daunorubicin HCl] ) = +++

Continuing:
Reported Compound Myofibroblast Cytotoxicity Activity ( C=C1CC[C@H]2O[C@]2(C)CC[C@@H]2[C@@H]1CC2(C)C [Cmpd 222, Caryophyllene Oxide] ) = ++
